Item-by-item account of IC50
# target_under_test: EVp28 (Gst-Evp28) ubiquitin ligase (Ectromelia virus, UniProt Q85318)
measurement_name: IC50

O=C1/C(=C\c2nc3ccccc3[nH]2)SC(=S)N1c1ccc(F)cc1 92 nM
O=C1/C(=C\c2ccc(-c3cccc(C(F)(F)F)c3)o2)SC(=S)N1Cc1ccccc1 16 nM
